Listed here: items and their measured TGI.
Test system: COLO 205 colon
Assay: NCI tumour cell line growth inhibition, 48 h

>>> result("COc1ccc(-c2cc(=O)c3c(O)c(OC)c(OC)c(OC)c3o2)cc1OC")
"> 100 µM"
>>> result("O=C(O)C1=C/C(=C(/c2ccccc2)c2cc(C(=O)O)c(O)c3ccccc23)c2ccccc2C1=O")
"> 100 µM"
>>> result("CC(C)C1CNC(=O)C2(C=NC(C(C)C)CNC(=O)C3(C=N1)CCCO3)CCCO2 (centres undefined)")
"> 10 µM"
>>> result("C1CNOCCCONCCCNOCCCONC1")
"> 100 µM"
>>> result("CCNC(=O)C(C)C1CCC2(C)C=CC(=O)C(C)=C2C1O (centres undefined)")
"> 100 µM"

Item `COc1cc2c(c(OC)c1OC)-c1ccc(SC)c(=O)cc1[C@@H](NCc1ccc(F)cc1)CC2` has what recorded TGI? < 0.0075 µM

Look up TGI for this compound: CSc1ncnc2c1cnn2Cc1cnnn1COCC(O)CO (centres undefined) > 100 µM

Query: TGI; subject: COc1cc2c(c(OC)c1OC)-c1ccc(NN(C(=O)c3ccccc3)C(=O)c3ccccc3)c(=O)cc1[C@@H](NC(C)=O)CC2 (tested in a mixture with another compound) 12.2 µM

Given the entry NC1NC=NC2C1N=CN2C1OC(CO)C2[O][Sn][O]C21 (centres undefined) , report its measured TGI. > 100 µM
